Provenance of the data: PubChem BioAssay (NCI)

# System: DU-145 prostate
# Method description: NCI-60 one-dose screen, 48 h (100 = growth as untreated, 0 = no growth, -100 = all killed)
# Condition: 10 µM unless noted
This is part of a sample that, as a whole, favours compounds with a hit. Of some 83,000 tested, about 20% had one in any assay.
Binary classification by growth, with 60% as an inclusive lower bound for Criterion met; all other cases are Criterion not met.

- Compound: "Cc1cc(=O)oc2cc(OCCCOc3ccc(/C=C/C(=O)Nc4ccc(Br)cc4)cc3)ccc12"
  Group label: "Criterion met"
- Compound: "N#C/C(=C\\c1ccc(-c2ccc(Cl)cc2)o1)C(=O)Nc1ncc(Cc2ccc(Br)cc2)s1"
  Group label: "Criterion not met"
- Compound: "Cc1ccc(-c2cc3nc(C(Cl)Cl)nc(-c4ccc(S(=O)(=O)N(C)C)cc4)n3n2)cc1"
  Group label: "Criterion met"
- Compound: "C[C@]12CC[C@H]3[C@@H](CC=C4C[C@@H](O)CC[C@@]43C)[C@@H]1CC[C@@H]2[C@](C)(O)CCc1cccnc1"
  Group label: "Criterion not met"
- Compound: "CN(C)c1ccc(/C=N/Nc2nc(N/N=C/c3ccc(N(C)C)cc3)nc(N3CCCCC3)n2)cc1"
  Group label: "Criterion met"
- Compound: "C=C1CCc2nc(SCC(=O)O)ccc2N1"
  Group label: "Criterion met"
- Compound: "O=C(CN1CCN(c2cc(=O)[nH]c3ccc(F)cc23)CC1)N(c1ccccc1)c1ccccc1"
  Group label: "Criterion met"
- Compound: "Cc1ccc(S(=O)(=O)c2nc(-c3ccc(F)cc3)oc2S(C)(=O)=O)cc1"
  Group label: "Criterion met"
- Compound: "O=C1[C@@H]2Cc3c([nH]c4ccccc34)[C@@H](c3ccc(Cl)cc3)N2C(=O)CN1C1CCN(Cc2c(F)cccc2F)CC1"
  Group label: "Criterion not met"
- Compound: "COc1ccc(C2c3[nH]c4ccc(Cl)cc4c3CCN2c2oc(CO)nc2C#N)cc1 (stereo not given)"
  Group label: "Criterion not met"
- Compound: "COC(=O)c1cccc(NC2=C(Cl)C(=O)C(C)=C(C)C2=O)c1"
  Group label: "Criterion met"
- Compound: "CCN(CC)CCOc1ccc(C(=C(C)c2ccc(OC)cc2)c2ccc(OCCN(CC)CC)cc2)cc1"
  Group label: "Criterion not met"
- Compound: "O=c1nc(Nc2ccc([N+](=O)[O-])cc2O)sc2ccccc12"
  Group label: "Criterion not met"
- Compound: "Cc1ccc2c(n1)C(=O)C(Cl)=C(Nc1cccc(C(=O)OC(C)(C)C)c1)C2=O"
  Group label: "Criterion met"
- Compound: "CCOC(=O)c1cccc(NC2=C(Cl)C(=O)c3nc(C)ccc3C2=O)c1"
  Group label: "Criterion met"

----------
# Test system: SNB-75 CNS
# Method description: NCI-60 one-dose screen, 48 h
# Condition: 10 µM unless noted
About 83,000 compounds went through this panel and 20% of them were active in at least one assay; those are over-represented in the sample as a whole. The source made the active and inactive calls. How the source made its calls: active means growth percent below 10; inactive means the rest.
Outcomes: active, inactive

- Compound: "Cc1nc(/N=C(N)/N=C(\\N)c2cccc(Br)c2)sc1C"
  Group label: "inactive"
- Compound: "NS(=O)(=O)c1ccc(Nc2nc(N/N=C/C=C/c3ccccc3)nc(Nc3ccccc3)n2)cc1"
  Group label: "inactive"
- Compound: "Cc1ccc2c(n1)C(=O)C(Cl)=C(Nc1ccc(C(=O)OC(C)(C)C)cc1)C2=O"
  Group label: "inactive"
- Compound: "O=C(CSc1nc2ccccc2c(=O)n1-c1ccccc1)N/N=C/c1ccc(Oc2ccc(Cl)cc2)cc1"
  Group label: "inactive"
- Compound: "N#Cc1c(-c2cccs2)cc(-c2cnccn2)nc1SCC(=O)N/N=C/c1ccccc1"
  Group label: "inactive"
- Compound: "COc1ccc(C2CC(c3cccc(OCCCCOc4cccc(C5=NN(C(C)=O)C(c6ccc(OC)cc6)C5)c4)c3)=NN2C(C)=O)cc1 (centres undefined)"
  Group label: "inactive"
- Compound: "CNCCN(C)c1ccc(Nc2cc(NC3CC3)n3ncc(C#N)c3n2)cc1NC(C)=O"
  Group label: "active"
- Compound: "Cc1ccc(/C=N/Nc2nc(Nc3ccccc3)nc(Nc3ccc(S(N)(=O)=O)cc3)n2)cc1"
  Group label: "inactive"
- Compound: "NS(=O)(=O)c1cccc(Nc2nc(SCC(=O)c3ccc(Cl)cc3)nc3c2CCC3)c1"
  Group label: "inactive"

----------
# Tested on: ACHN renal
# Method description: NCI-60 one-dose screen, 48 h (100 = growth as untreated, 0 = no growth, -100 = all killed)
# Condition: 10 µM unless noted
Compounds without any hit were thinned out: in the full panel of roughly 83,000, 20% have a hit.
Consider the cut-off 30%. If the recorded growth is strictly smaller, the label is Met; if not, the label is Not met.

- Molecule: "CC1=C(C)C(=O)C(Nc2cccc(C)c2)=C(Br)C1=O"
  Group label: "Not met"
- Molecule: "COc1ccc(-c2cc(-c3ccc(N4CCOCC4)cc3)n3c(n2)nc2ccccc23)cc1OC"
  Group label: "Not met"
- Molecule: "CN1CC[C@@H]2[C@@]3(C)CC[C@H](O)C(C)(C)[C@@H]3CC[C@@]2(C)[C@]2(C)CC[C@@]3(CO)CCC(C)(C)C[C@@H]3C12 (stereo partly specified)"
  Group label: "Not met"
- Molecule: "Cc1csc(/N=C(N)/N=C(\\N)c2cccs2)n1"
  Group label: "Not met"
- Molecule: "O=C(Nc1cc(C(F)(F)F)cc(C(F)(F)F)c1)Nc1ccc2oc(=O)ccc2c1"
  Group label: "Met"
- Molecule: "CCn1c2ccc(/C=N/N(C)S(=O)(=O)CCN(C)C)cc2c2cc(/C=N/N(C)S(=O)(=O)CCN(C)C)ccc21"
  Group label: "Not met"
- Molecule: "CC(=C(c1ccc(OCCN2CCCC2)cc1)c1ccc(OCCN2CCCC2)cc1)c1ccc(Cl)cc1"
  Group label: "Met"
- Molecule: "O=c1nc(Nc2ccc([N+](=O)[O-])cc2O)sc2ccccc12"
  Group label: "Not met"
- Molecule: "O=C(/C=C/c1cccc(Br)c1)c1cccc(OCCCCOc2cccc(C(=O)/C=C/c3cccc(Br)c3)c2)c1"
  Group label: "Not met"
- Molecule: "COC(=O)CCCNCCCn1ccc2cc(NCc3cccc(-c4ccccc4)c3C)ccc21"
  Group label: "Not met"
- Molecule: "CNC(=O)c1cc(N2CCc3cc(NC(=O)Nc4ccc(N5CCOCC5)c(C(F)(F)F)c4)ccc32)ccn1"
  Group label: "Met"
- Molecule: "CC(C)(O)c1cncc(-c2ccc3ncc(C#N)c(N4CCc5cc(F)c(Cl)cc54)c3c2)c1"
  Group label: "Met"
- Molecule: "C=C(C=O)[C@@H]1CC[C@]2(C(=O)O)CC[C@]3(C)C(CC[C@@H]4[C@@](C)(CCC#N)[C@H](C(=C)C=O)CC[C@]43C)[C@@H]12 (stereo partly specified)"
  Group label: "Not met"
- Molecule: "Brc1cc(-c2cc(-c3ccc4c(c3)OC=CO4)[nH]n2)cs1"
  Group label: "Not met"
- Molecule: "N#Cc1c(-c2cccs2)c(C#N)c(=O)n(Cc2nc3ccccc3[nH]2)c1N"
  Group label: "Not met"
- Molecule: "C1=CC(c2nn3c(-c4ccccc4)nnc3s2)=Cc2ccccc2O1"
  Group label: "Not met"
- Molecule: "COc1ccc(/C=N/NC(=O)CSc2nc(-c3cnccn3)cc(-c3cccs3)c2C#N)cc1OC"
  Group label: "Not met"
- Molecule: "COc1ccc(C2c3[nH]c4ccc(Cl)cc4c3CCN2c2oc(CO)nc2C#N)cc1 (stereo unspecified)"
  Group label: "Not met"
- Molecule: "N#Cc1c(-c2ccc(Br)cc2)cc(-c2c[nH]c3ccccc23)nc1N"
  Group label: "Not met"
- Molecule: "Cc1ccc2c(n1)C(=O)C(Cl)=C(Nc1cccc(C)c1C)C2=O"
  Group label: "Met"
- Molecule: "Cn1c2nc3ccccc3c-2cc2ccccc21"
  Group label: "Met"
- Molecule: "O=C(COc1ccc(/C=C2\\C(=O)Nc3ccc(Cl)cc32)cc1)Nc1ccc(Cl)cc1"
  Group label: "Not met"
- Molecule: "CCCCCCNC(=O)Oc1ccc(/C(=C(/C)c2ccc(Cl)cc2)c2ccc(OCCN3CCCCCC3)cc2)cc1"
  Group label: "Not met"
- Molecule: "Oc1[nH]c2ccc(Cl)cc2c1N=Nc1nc(N=Nc2c(O)[nH]c3ccc(Cl)cc23)nc(N2CCOCC2)n1"
  Group label: "Not met"
- Molecule: "NC(=O)n1c(=O)n(-c2cccc(C(F)(F)F)c2)c(=O)c2cc(-c3ccc(F)cc3F)ccc21"
  Group label: "Met"
- Molecule: "Cc1ccc(CSC2=C(Cl)CN(c3ccc(Cl)cc3)C2=O)cc1"
  Group label: "Not met"
- Molecule: "Cc1ccc2c(n1)C(=O)C(Cl)=C(Nc1ccccc1C(=O)OC(C)(C)C)C2=O"
  Group label: "Met"
- Molecule: "CN1CCN(c2ccc(Nc3nc(NCCCNS(=O)(=O)c4ccc(Cl)cc4)c4sccc4n3)cc2)CC1"
  Group label: "Met"
- Molecule: "CN1CCN(c2ccc(Nc3nc(NCCNC(=O)c4ccc(F)cc4)c4sccc4n3)cc2)CC1"
  Group label: "Not met"
- Molecule: "CCCCOc1ccc(S(=O)(=O)N2CCN(c3nc(C)cc(N4CCOCC4)n3)CC2)cc1"
  Group label: "Met"
- Molecule: "CC(C)=CCC[C@](C)(O)[C@H]1CC[C@]2(C)[C@@H]1CC[C@@H]1[C@@]3(C)CC[C@H](N)C(C)(C)[C@@H]3CC[C@]12C"
  Group label: "Not met"
- Molecule: "CC[C@]12C=CCN3CC[C@@]4(c5ccc(OC)cc5N(C)[C@H]4[C@@](O)(C(=O)OC)[C@@H]1OC(=O)CCN1CCc4ccccc4C1)[C@@H]32"
  Group label: "Not met"
- Molecule: "O=C(CSc1nc2ccccc2c(=O)n1-c1ccc(S(=O)(=O)Nc2ccc(Cl)nn2)cc1)Nc1ccc(S(=O)(=O)Nc2ccc(Cl)nn2)cc1"
  Group label: "Not met"
- Molecule: "C#CCOc1cccc(-c2nc(N)nc(Nc3ccccc3SSc3ccccc3Nc3nc(N)nc(-c4cccc(OCC#C)c4)n3)n2)c1"
  Group label: "Met"
- Molecule: "COc1ccc(C(=NNS(=O)(=O)c2ccc(C)cc2)c2ccccc2)cc1OC"
  Group label: "Not met"
- Molecule: "CNC(=O)c1cc(-c2ccc(NC(=S)Nc3cccc(C(F)(F)F)c3)cc2)nc2cccnc12"
  Group label: "Not met"
